target: glutathione S-transferase (GST)-linked full-length human Syk protein (Homo sapiens, UniProt P43405)
Reported IC50 is given for each of the following molecules.
MEASURED_ENDPOINT: IC50

>>> print(df.to_string())
                                smiles_code  measured_endpoint   assay_value
0  C[C@H](N)[C@H](Nc1nc(Nc2ccc(F)cc2)c(C(N)=O)cc1F)C1CCC1               IC50   10 to 50 nM
1  COc1ccc(Nc2nc(N[C@H](C3CC3)[C@H](C)N)c(F)cc2C(N)=O)cc1OC               IC50       < 10 nM
2  C[C@H](N)[C@H](Nc1nc(Nc2ccc3c(c2)c(N(C)C)nn3C)c(C(N)=O)cc1F)c1cc(F)cc(F)c1               IC50   10 to 50 nM
3  COCCn1ncc2c(Nc3nc(N[C@@H]4CCCC[C@@H]4N)c(F)cc3C(N)=O)cccc21               IC50       < 10 nM
4  COCCn1nc(C)c2cc(Nc3nc(N[C@H](CC(C)C)[C@H](C)N)c(F)cc3C(N)=O)ccc21               IC50       < 10 nM
5  Cc1ncc(Nc2nc(N[C@H](c3cccs3)[C@H](C)N)c(F)cc2C(N)=O)cc1-n1nccn1               IC50       < 10 nM
6  COc1cc(Nc2nc(N[C@H](C(C)C)[C@H](C)N)c(F)cc2C(N)=O)ccn1               IC50  50 to 100 nM

* * *

biological target: glutathione S-transferase (GST)-linked full-length human Syk protein (Homo sapiens, UniProt P43405)
pIC50: −log10 of the molar value.
MEASURED_ENDPOINT: pIC50

In [3]: df
Out[3]:
                                    molecule   assay_value
 0  COc1ncc(Nc2nc(N[C@H](C3CC3)[C@H](C)N)c(F)cc2C(N)=O)cc1F  7.30 to 8.00
 1  CCn1ncc2cc(Nc3nc(N[C@H](Cc4ccccc4)[C@H](C)N)c(F)cc3C(N)=O)ccc21        > 8.00
 2  CC[C@@H](Nc1nc(Nc2ccc3c(c2)c(N(C)CCOC)nn3C)c(C(N)=O)cc1F)[C@H](C)N        > 8.00
 3  C[C@H](N)[C@H](Nc1nc(Nc2cncc(-n3cc(Cl)cn3)c2)c(C(N)=O)cc1F)C1CC1        > 8.00
 4  Cc1ncc(Nc2nc(N[C@H](Cc3ccccc3)[C@H](C)N)c(F)cc2C(N)=O)cc1F  7.30 to 8.00
 5  COCCOc1ncc(Nc2nc(N[C@H](C3CCC3)[C@H](C)N)c(F)cc2C(N)=O)cc1-n1nccn1  7.30 to 8.00
 6  CC[C@@H](Nc1nc(Nc2ccc3c(c2)c(NCCOC)nn3C)c(C(N)=O)cc1F)[C@H](C)N  7.30 to 8.00
 7  Cc1ncc(Nc2nc(NC3[C@@H](OCc4ccccc4)CCC[C@@H]3N)c(F)cc2C(N)=O)cc1-n1nccn1 (mixture of isomers)  7.30 to 8.00
 8  CCC[C@@H](Nc1nc(Nc2cc(F)c3c(c2)c(OC)nn3C)c(C(N)=O)cc1F)[C@H](C)N        > 8.00
 9  C[C@@H](Nc1nc(Nc2ccc3c(c2)c(N(C)C)nn3C)c(C(N)=O)cc1F)[C@@H](N)C1CC1  7.00 to 7.30
10  CNc1ncc(Nc2nc(N[C@H](C3CC3)[C@H](C)N)c(F)cc2C(N)=O)cc1F  7.30 to 8.00
11  C[C@H](N)[C@H](Nc1nc(Nc2ccc3[nH]nc(N(C)C)c3c2)c(C(N)=O)cc1F)C1CC1        > 8.00
12  CCn1ncc2ccc(Nc3nc(N[C@H](C(C)C)[C@H](C)N)c(F)cc3C(N)=O)cc21  7.00 to 7.30
13  Cc1nn(CC(F)F)c2ccc(Nc3nc(N[C@@H](CN)CC(C)C)c(F)cc3C(N)=O)cc12        > 8.00
14  CC[C@@H](Nc1nc(Nc2cncc(-n3cc(Cl)cn3)c2)c(C(N)=O)cc1F)[C@H](C)N  7.30 to 8.00

* * *

Item-by-item account of IC50
biological target: glutathione S-transferase (GST)-linked full-length human Syk protein (Homo sapiens, UniProt P43405); construct: glutathione S-transferase (GST)-linked full-length human Syk protein; purchased Carna Biosciences; host or cells: Baculovirus expression system; assay: Syk enzyme assay; type: biochemical; conditions: 0.83 nM Syk, time-resolved fluorescence; read-out: IC50 of Syk-inhibitory activity
MEASURED_ENDPOINT: IC50

>>> df
                                   molecule  assay_value
0  CCC[C@@H](Nc1nc(Nc2cnc3c(c2)c(N(C)C)nn3C)c(C(N)=O)cc1F)[C@H](C)N [Example 2-289]      < 10 nM
1  NC(=O)c1cc(F)c(N[C@@H]2CCCC[C@@H]2N)nc1Nc1cncc2c1cnn2CC(F)F [Example 2-393]      < 10 nM
2  COC[C@@H](Nc1nc(Nc2ccc3c(c2)c(C)nn3C)c(C(N)=O)cc1F)[C@H](C)N [Example 2-196]      < 10 nM
3  CC[C@H](N)[C@H](Nc1nc(Nc2cncc(-n3cccn3)c2)c(C(N)=O)cc1F)C1CC1 [Example 2-366]  10 to 50 nM
4  COc1cc(Nc2nc(N[C@H](CCSC)[C@H](C)N)c(F)cc2C(N)=O)cc(OC)c1 [Example 2-345]  10 to 50 nM
5  COCCNc1nn(C)c2ccc(Nc3nc(N[C@@H]4CCCC[C@@H]4N)c(F)cc3C(N)=O)cc12 [Example 2-462]  10 to 50 nM
6  Cc1ncc(Nc2nc(N[C@H](c3ccccc3)[C@H](C)N)c(F)cc2C(N)=O)cc1-n1nccn1 [Example 2-313]      < 10 nM

* * *

Reported values: IC50 for UniProtKB P43405, one per item.
MEASURED_ENDPOINT: IC50

                                 smiles_code   assay_value
 0  COc1ncc(Nc2nc(N[C@H](C3CCC3)[C@H](C)N)c(F)cc2C(N)=O)cc1-n1ccnn1   10 to 50 nM
 1  CC[C@@H](Nc1nc(Nc2cnc(C)c(C)c2)c(C(N)=O)cc1F)[C@H](C)N       < 10 nM
 2  COCCOc1cc(Nc2nc(N[C@H](C)[C@@H](N)C3CC3)c(F)cc2C(N)=O)ccn1  50 to 100 nM
 3  CCn1ncc2cc(Nc3nc(N[C@H](c4ccccc4F)[C@H](C)N)c(F)cc3C(N)=O)ccc21       < 10 nM
 4  COc1ncc(Nc2nc(N[C@H](CC(C)C)[C@H](C)N)c(F)cc2C(N)=O)cc1-n1ccnn1   10 to 50 nM
 5  CCn1ncc2cc(Nc3nc(N[C@H](c4cccc(F)c4)[C@H](C)N)c(F)cc3C(N)=O)ccc21       < 10 nM
 6  CC[C@@H](Nc1nc(Nc2cnc3c(c2)c(C)nn3C)c(C(N)=O)cc1F)[C@H](C)N   10 to 50 nM
 7  CCc1cccc(Nc2nc(N[C@@H]3CCCC[C@@H]3N)c(F)cc2C(N)=O)c1       < 10 nM
 8  COCCn1nc(N(C)C)c2cc(Nc3nc(N[C@@H]4CCCC[C@@H]4N)c(F)cc3C(N)=O)ccc21   10 to 50 nM
 9  CC(C)c1ccc(Nc2nc(N[C@@H]3CCCC[C@@H]3N)c(F)cc2C(N)=O)cc1   10 to 50 nM
10  COCCn1nc(OC(F)F)c2cc(Nc3nc(N[C@@H]4CCCC[C@@H]4N)c(F)cc3C(N)=O)ccc21       < 10 nM
11  CC(C)C[C@@H](Nc1nc(Nc2cccc3c2cnn3C)c(C(N)=O)cc1F)[C@H](C)N       < 10 nM
12  CC(C)C[C@@H](Nc1nc(Nc2cnc3c(c2)c(N(C)C)nn3C)c(C(N)=O)cc1F)[C@H](C)N       < 10 nM
13  Cn1nc(OC(F)F)c2cc(Nc3nc(N[C@@H]4CCOC[C@@H]4N)c(F)cc3C(N)=O)ccc21       < 10 nM
14  CC(C)C[C@@H](Nc1nc(Nc2ccc3c(c2)c(OC(F)F)nn3C)c(C(N)=O)cc1F)[C@H](C)N       < 10 nM

* * *

target: glutathione S-transferase (GST)-linked full-length human Syk protein (Homo sapiens, UniProt P43405)
MEASURED_ENDPOINT: IC50

In [3]: df
Out[3]:
                                    molecule   assay_value
 0  Cc1ncc(Nc2nc(N[C@@H]3CCOC[C@@H]3N)c(F)cc2C(N)=O)cc1F [Example 2-225]   10 to 50 nM
 1  COc1ncc(Nc2nc(N[C@@H]3CCCC[C@@H]3N)c(F)cc2C(N)=O)cc1C(C)=O [Example 2-515]   10 to 50 nM
 2  CC[C@@H](Nc1nc(Nc2cnc3c(c2)c(N(C)C)nn3C)c(C(N)=O)cc1F)[C@H](C)N [Example 2-288]   10 to 50 nM
 3  CC[C@@H](Nc1nc(Nc2ccc3c(c2)c(OC)nn3CCOC)c(C(N)=O)cc1F)[C@H](C)N [Example 2-125]       < 10 nM
 4  CC[C@H](N)[C@H](Nc1nc(Nc2cccc3c2cnn3C)c(C(N)=O)cc1F)C1CC1 [Example 2-546]       < 10 nM
 5  CCC[C@@H](Nc1nc(Nc2ccc3c(c2)c(C)nn3CC(F)F)c(C(N)=O)cc1F)[C@H](C)N [Example 2-138]       < 10 nM
 6  CC(C)C[C@@H](Nc1nc(Nc2ccnc(N3CCOCC3)c2F)c(C(N)=O)cc1F)[C@H](C)N [Example 2-235]       < 10 nM
 7  COc1ncc(Nc2nc(N[C@H](C3CC3)[C@H](C)N)c(F)cc2C(N)=O)cc1-n1ccnn1 [Example 2-162]   10 to 50 nM
 8  C[C@H](N)[C@H](Nc1nc(Nc2ccc(F)cc2)c(C(N)=O)cc1F)C1CC1 [Example 2-58]   10 to 50 nM
 9  CC(C)C[C@H](CN)Nc1nc(Nc2ccc3c(c2)c(N(C)C)nn3C)c(C(N)=O)cc1F [Example 2-86]       < 10 nM
10  COc1ccc([C@@H](Nc2nc(Nc3cnc(C)c(-n4nccn4)c3)c(C(N)=O)cc2F)[C@H](C)N)cc1 [Example 2-338]   10 to 50 nM
11  COc1nn(C)c2ccc(Nc3nc(N[C@H](C(C)C)[C@H](C)N)c(F)cc3C(N)=O)cc12 [Example 2-81]   10 to 50 nM
12  CC(C)C[C@@H](Nc1nc(Nc2cncc3c2cnn3CC(F)F)c(C(N)=O)cc1F)[C@H](C)N [Example 2-400]       < 10 nM
13  C[C@H](N)[C@H](Nc1nc(Nc2ccc3ncccc3c2)c(C(N)=O)cc1F)C1CCC1 [Example 2-8]       < 10 nM
14  CC(C)[C@@H](Nc1nc(Nc2ccc3cnn(C)c3c2)c(C(N)=O)cc1F)[C@H](C)N [Example 2-102]  50 to 100 nM
15  COCCn1ncc2c(Nc3nc(N[C@@H]4CCCC[C@@H]4N)c(F)cc3C(N)=O)cncc21 [Example 2-384]       < 10 nM
16  Cn1nc(N2CCCC2)c2cc(Nc3nc(N[C@@H]4CCCC[C@@H]4N)c(F)cc3C(N)=O)ccc21 [Example 2-428]   10 to 50 nM
17  CC(C)C[C@@H](Nc1nc(Nc2cnc(N3CCOCC3)c(F)c2)c(C(N)=O)cc1F)[C@H](C)N [Example 2-237]   10 to 50 nM
18  Cc1ncc(Nc2nc(N[C@H](C)[C@@H](N)C3CC3)c(F)cc2C(N)=O)cc1-n1nccn1 [Example 2-226]  50 to 100 nM
19  CC(C)C[C@H](CN)Nc1nc(Nc2cnc3c(c2)c(N(C)C)nn3C)c(C(N)=O)cc1F [Example 2-287]   10 to 50 nM
20  Cc1cc(C)n(-c2cncc(Nc3nc(N[C@@H]4CCCC[C@@H]4N)c(F)cc3C(N)=O)c2)n1 [Example 2-473]   10 to 50 nM
21  CCC[C@@H](Nc1nc(Nc2ccc3c(c2)c(N(C)C)nn3CCOC)c(C(N)=O)cc1F)[C@H](C)N [Example 2-503]   10 to 50 nM
22  CCC[C@@H](Nc1nc(Nc2cnc(OC)c(F)c2)c(C(N)=O)cc1F)[C@H](C)N [Example 2-65]   10 to 50 nM
23  CCCC[C@@H](Nc1nc(Nc2cncc3c2cnn3CC)c(C(N)=O)cc1F)[C@H](C)N [Example 2-321]       < 10 nM
24  CCC[C@@H](Nc1nc(Nc2cnc3c(c2)c(C)nn3C)c(C(N)=O)cc1F)[C@H](C)N [Example 2-242]   10 to 50 nM
25  CC[C@H](N)[C@@H](C)Nc1nc(Nc2cncc3c2cnn3CC)c(C(N)=O)cc1F [Example 2-325]       < 10 nM
26  COCCOc1ncc(Nc2nc(N[C@H](C3CC3)[C@H](C)N)c(F)cc2C(N)=O)cc1F [Example 2-115]   10 to 50 nM
27  CC[C@H](N)[C@@H](C)Nc1nc(Nc2ccc3[nH]nc(NC)c3c2)c(C(N)=O)cc1F [Example 2-491]   10 to 50 nM
28  Cc1nn(C)c2ccc(Nc3nc(N[C@@H]4CCOC[C@@H]4N)c(F)cc3C(N)=O)cc12 [Example 2-208]       < 10 nM
29  Cc1cncc(Nc2nc(N[C@@H]3CCOC[C@@H]3N)c(F)cc2C(N)=O)c1 [Example 2-218]   10 to 50 nM

Hello, the source for this data is patent US9051310B2, in case you need it.
